property-measured: melting point

>  <compound>
COc1ccc(C2=NN(C3CCSCC3)C(=O)[C@H]3CC=CC[C@@H]23)cc1Cl (relative stereo)

>  <reported-result>
170 to 171 °C

$$$$
>  <compound>
COc1ccc(C2=NN(C3CCSCC3)C(=O)[C@H]3CC=CC[C@@H]23)c2c1OC(C)(C)C2 (relative stereo)

>  <reported-result>
163 to 164 °C

$$$$
>  <compound>
COc1ccc(C2=NN(C3CCS(=O)(=O)CC3)C(=O)C3CC=CCC23)cc1OC (stereo not drawn) [compound 9]

>  <reported-result>
203 to 204 °C

$$$$
>  <compound>
COc1ccc(C2=NN(C3CCS(=O)(=O)CC3)C(=O)C3CC=CCC23)cc1OC (stereo not drawn) [compound 2]

>  <reported-result>
196 to 198 °C

$$$$
>  <compound>
COc1ccc(C2=NN(C3CCS(=O)(=O)CC3)C(=O)C3CC=CCC23)c2c1OC(C)(C)C2 (stereo not drawn)

>  <reported-result>
261 to 263 °C

$$$$
>  <compound>
COc1ccc(C2=NN(C3CC[S+]([O-])CC3)C(=O)C3CC=CCC23)cc1Cl (stereo not drawn)

>  <reported-result>
197 to 199 °C

$$$$

The values you see were collected from patent US6846821B2.
